The values you see were collected from PubChem BioAssay (NCI).

The molecules listed here are annotated with their growth.
# Test system: LOX IMVI melanoma
# protocol.text: NCI-60 one-dose screen, 48 h (100 = growth as untreated, 0 = no growth, -100 = all killed)
# experimental.conditions: 10 µM unless noted
Compounds without any hit were thinned out: in the full panel of roughly 83,000, 20% have a hit. The source made the active and inactive calls. Rule for the calls: active = growth percent below 10; inactive = the rest.

Recorded results for 2 molecules are shown here.
- molecule: "COc1cc(/C=C/C(=O)c2ccc(NC(=O)CSc3nnc(-c4ccc(-c5nc6ccc(Cl)cc6[nH]5)cc4)o3)cc2)cc(OC)c1OC"
  measured.property: "growth"
  reported.measurement: "88.6% (inactive)"
- molecule: "C[C@@H]1C[C@H]2C(=O)O[C@@H](C)C(NC(=O)[C@H](Cc3cc(F)cc(F)c3)NC(=O)Nc3ccc(Cl)cc3F)C(=O)N3CCC[C@H]3C(=O)N3CCCC[C@H]3C(=O)N[C@@H](CO)C(=O)N2C1 (stereo partly drawn)"
  measured.property: "growth"
  reported.measurement: "29.5% (inactive)"

Q: State its growth on LOX IMVI melanoma: Cc1cc(-c2ccc(Cl)cc2)n(Cc2nnc(SCC(=O)Nc3ccc(S(N)(=O)=O)cc3)n2C2CCCCC2)n1
Result: 101% (inactive)
